Test system: southern corn rootworm (SCR) adults
Test: Sticky trap attraction in sweet corn plots (Example 1)
Format: in vivo, Diabrotica undecimpunctata howardi
Settings: August first year, South Farms; 24 h; single compounds 100 mg per trap, mixture 20 mg of each component; n = 4
Provide the recorded Mean number of SCR per trap (±standard deviation) for the entries that follow.
Response body: numeric value in per trap, unit text excluded.

Prompt: Lab request: please report Mean number of SCR per trap (±standard deviation) under test system southern corn rootworm (SCR) adults for O=CCc1ccccc1 [Phenylacetaldehyde]
Response: 2.5

Prompt: For COc1ccccc1OC [Veratrole, 1,2-dimethoxybenzene] then?
Response: 6.8

Prompt: For CC=Cc1cccc(OC)c1 [II, 4-methoxy-2-propenylbenzene] then?
Response: 1.5

Prompt: For C=CCc1ccc(O)c(OC)c1 [XXIV, eugenol] then?
Response: 2.8

Prompt: For c1ccc2[nH]ccc2c1 [Indole] then?
Response: 2.3

====

Test system: D. u. howardi
Experiment: Sticky trap attraction in prairie habitat, Trelease Woods (Example 2)
Format: in vivo, Diabrotica undecimpunctata howardi
Details: August 14, 1987; 100 mg per trap; n = 4
Method: The candidate lures in all experiments were purchased commercially and exceeded 98% purity. The test chemicals were applied by capillary micropipettes to cotton dental wicks which were attached to the tops of 1.0 liter cylindrical paper cartons covered with TangleTrap™ (Tanglefoot Co., Grand Rapids, Mich.). The sticky trap techniques used were as described in Example 1. […] Attraction of Diabrotica species to the various lures was measured by the mean number of beetles caught after 24-h. […]
Marks after values point to notes of the source that are not given here.
Provide the recorded Mean number of D. u. howardi per day (±standard deviation) for the entries that follow.

Prompt: Lab request: please report Mean number of D. u. howardi per day (±standard deviation) under test system D. u. howardi for CC(=O)/C=C/C1C(C)=CCCC1(C)C (stereo not drawn)
Response: 0.0^a per day

Prompt: For OCC=Cc1ccccc1 then?
Response: 2.8 ± 1.7^b per day

Prompt: For C=CCc1ccc(OC)c(OC)c1 then?
Response: 0.3 ± 0.5^a per day

Prompt: For C=CCc1ccc(O)c(OC)c1 then?
Response: 0.0^a per day

Prompt: For C=CCc1ccc(OC)cc1 then?
Response: 0.5 ± 0.7^a per day

Prompt: For CC(=O)/C=C/C1=C(C)CCCC1(C)C then?
Response: 0.0^a per day

====

System: D. cristata
Assay: Sticky trap attraction in prairie habitat, Trelease Woods (Example 2)
Format: in vivo, Diabrotica cristata
Details: August 14, 1987; 100 mg per trap; n = 4
Marks after values point to notes of the source that are not given here.
measured.quantity: Mean number of D. cristata per day (±standard deviation)

Prompt: Entry under review: CC(=O)/C=C/C1C(C)=CCCC1(C)C (stereo not drawn) [α-ionone] . Reported Mean number of D. cristata per day (±standard deviation)?
Response: 2.8 ± 2.1^a per day

Prompt: For CC(=O)/C=C/C1=C(C)CCCC1(C)C [β-ionone] then?
Response: 5.3 ± 2.2^b per day

Prompt: For C=CCc1ccc(OC)cc1 [I, 4-methoxy-1-allylbenzene] then?
Response: 13.0 ± 4.2^c per day

Prompt: For OCC=Cc1ccccc1 [XVIII, cinnamyl alcohol] then?
Response: 20.5 ± 1.3^d per day

Prompt: For C=CCc1ccc(O)c(OC)c1 [XXIV, eugenol] then?
Response: 20.0 ± 8.4^cd per day

Prompt: For C=CCc1ccc(OC)c(OC)c1 [Methyl eugenol] then?
Response: 4.5 ± 1.3^ab per day

====

System: western corn rootworm (WCR) adults
Assay: Sticky trap attraction in corn, estragole analogues (Example 3)
Format: in vivo, Diabrotica virgifera virgifera
Details: August 4 second year; 100 mg per trap; n = 4
Experimental: Test chemicals were applied by capillary micropipettes to cotton dental wicks that were attached to tops of 1.0 liter cylindrical paper cartons covered with TangleTrap™, Grand Rapids, Mich. The trapping techniques used were as previously described in Example 1. […] Attraction of Diabrotica species adults of the sticky traps was measured by the mean number of beetles caught after 1 day (ca. 24 hours) exposure. […]
Marks after values point to notes of the source that are not given here.
measured.quantity: Mean number of WCR adults per sticky trap (±standard deviation) after 24 hours

Prompt: Entry under review: COc1ccccc1C=CC=O [XIII, 2-methoxycinnamaldehyde] . Reported Mean number of WCR adults per sticky trap (±standard deviation) after 24 hours?
Response: 53.0 ± 14.7^c per sticky trap

Prompt: For COc1ccc(C=CC=O)cc1 [XI, 4-methoxycinnamaldehyde] then?
Response: 204.7 ± 34.6^e per sticky trap

Prompt: For C=CCc1ccccc1 [VIII, allylbenzene] then?
Response: 10.0 ± 1.4^a per sticky trap

Prompt: For N#CC=Cc1ccccc1 [X, cinnamonitrile] then?
Response: 32.7 ± 11.4^bc per sticky trap

Prompt: For O=CC=Cc1ccccc1 [XII, cinnamaldehyde] then?
Response: 32.2 ± 8.5^b per sticky trap

Prompt: For C=CCc1ccc(OC)cc1 [I, 4-methoxy-1-allylbenzene] then?
Response: 84.5 ± 19.7^d per sticky trap

Prompt: For COc1ccc(C=CC#N)cc1 [IX, 4-methoxycinnamonitrile] then?
Response: 196.0 ± 145.3^de per sticky trap

====

Test system: southern corn rootworm (SCR) adults
Test: Sticky trap attraction in sweet corn plots (Example 1)
Assay type: in vivo, Diabrotica undecimpunctata howardi
Details: August 4, second year; each compound 20 mg per trap; n = 4
Procedure: The attraction of Diabrotica species to single-component and multicomponent lures was evaluated in corn fields. […] The initial field test in August of the first year evaluated the response of SCR and WCR adults of a mixture of veratrole (V), indole (I), phenylacetaldehyde (P), trans-anethole (A), and eugenol (E) (=VIPAE mixture), as well as to the individual components. […]
Provide the recorded Mean number of SCR per trap (±standard deviation) for the entries that follow.
Response body: numeric value in per trap, unit text excluded.

Prompt: Entry under review: O=CCc1ccccc1 [Phenylacetaldehyde] . Reported Mean number of SCR per trap (±standard deviation)?
Response: 3.0

Prompt: For COc1ccccc1OC [Veratrole, 1,2-dimethoxybenzene] then?
Response: 5.8

Prompt: For COc1ccccc1O [Guaiacol, 2-methoxyphenol] then?
Response: 0.8

Prompt: For c1ccc2[nH]ccc2c1 [Indole] then?
Response: 1.5

====

System: D. v. virgifera
Assay: Sticky trap attraction along hybrid corn, Pomology South Farms (Example 2)
Assay type: in vivo, Diabrotica virgifera virgifera
Settings: August 18; 100 mg per trap; n = 4
Marks after values point to notes of the source that are not given here.
measured.quantity: Mean number of D. v. virgifera per stick trap per day (±standard deviation) in corn

Prompt: Lab request: please report Mean number of D. v. virgifera per stick trap per day (±standard deviation) in corn under test system D. v. virgifera for C=CCc1ccc(O)c(OC)c1 [XXIV, eugenol]
Response: 2.8 ± 2.9^a per stick trap per day

Prompt: For COc1ccc(C=CC=O)cc1 [XI, 4-methoxycinnamaldehyde] then?
Response: 178.8 ± 32.0^c per stick trap per day

Prompt: For OCC=Cc1ccccc1 [XVIII, cinnamyl alcohol] then?
Response: 3.3 ± 2.7^a per stick trap per day

Prompt: For CC(=O)/C=C/C1=C(C)CCCC1(C)C [β-ionone] then?
Response: 89.0 ± 18.2^b per stick trap per day

====

Tested on: western corn rootworm (WCR)
Test: Sticky trap attraction in corn, phenylethanol analogues (Example 6)
Type: in vivo, Diabrotica virgifera virgifera
Conditions: Table 16; 100 mg per trap; four replicates; 24 hour
Protocol: Test chemicals (purchased from Aldrich Chemical Co.; Milwaukee, Wis.) were applied by capillary micropipettes to cotton dental wicks that were attached to tops of 1.0 liter cylindrical paper cartons covered with TangleTrap™, Grand Rapids, Mich. The trapping techniques used were as previously described in Example 1. […] Attraction of Diabrotica species adults of the sticky traps was measured by the mean number of beetles caught after 1 day (ca. 24 hours) exposure. […]
Provide the recorded Mean number of WCR per trap (±standard deviation) for the entries that follow.
Write the quantity with the unit trailing the number.

Prompt: Entry under review: OCC=Cc1ccccc1 [XVIII, cinnamyl alcohol] . Reported Mean number of WCR per trap (±standard deviation)?
Response: 4.0 ± 1.6a per trap

Prompt: For COc1ccccc1CCO [2-methoxyphenylethanol] then?
Response: 6.0 ± 5.1a per trap

Prompt: For COc1cccc(CCO)c1 [3-methoxyphenylethanol] then?
Response: 3.7 ± 2.1a per trap

Prompt: For COc1ccc(CCO)cc1 [4-methoxyphenylethanol] then?
Response: 3.5 ± 2.1a per trap

====

System: D. u. howardi
Assay: Sticky trap attraction along hybrid corn, Pomology South Farms (Example 2)
Format: in vivo, Diabrotica undecimpunctata howardi
Conditions: August 18; 100 mg per trap; n = 4
Marks after values point to notes of the source that are not given here.
measured.quantity: Mean number of D. u. howardi per stick trap per day (±standard deviation) in corn

Prompt: Entry under review: C=CCc1ccc(O)c(OC)c1 [XXIV, eugenol] . Reported Mean number of D. u. howardi per stick trap per day (±standard deviation) in corn?
Response: 0.0^a per stick trap per day

Prompt: For CC(=O)/C=C/C1=C(C)CCCC1(C)C [β-ionone] then?
Response: 0.5 ± 0.7^a per stick trap per day

Prompt: For OCC=Cc1ccccc1 [XVIII, cinnamyl alcohol] then?
Response: 1.8 ± 1.3^b per stick trap per day

Prompt: For COc1ccc(C=CC=O)cc1 [XI, 4-methoxycinnamaldehyde] then?
Response: 0.0^a per stick trap per day
